Here the recorded ED50 is given for each entry.
MEASUREMENT TARGET: NK1-receptor (Cavia porcellus, UniProt P30547)
Construct: from tissue; host or cells: whole animal (Pirbright-White guinea pigs), in vivo
Sequence (P30547 whole entry): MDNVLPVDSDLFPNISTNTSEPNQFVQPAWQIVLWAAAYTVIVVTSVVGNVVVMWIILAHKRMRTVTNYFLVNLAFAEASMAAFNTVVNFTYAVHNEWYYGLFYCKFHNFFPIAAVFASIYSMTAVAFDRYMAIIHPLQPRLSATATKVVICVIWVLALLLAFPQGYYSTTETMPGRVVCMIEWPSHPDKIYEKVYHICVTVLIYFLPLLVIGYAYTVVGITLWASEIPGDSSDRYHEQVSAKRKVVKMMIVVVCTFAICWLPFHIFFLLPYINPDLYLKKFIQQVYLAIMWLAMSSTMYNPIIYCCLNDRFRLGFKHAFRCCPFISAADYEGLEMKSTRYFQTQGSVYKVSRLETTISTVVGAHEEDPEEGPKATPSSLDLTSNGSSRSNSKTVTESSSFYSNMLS
EXPERIMENTAL DETAILS: NK1-receptor-antagonistic effectiveness in vivo, NKA-induced early hypotension in anaesthetised guinea pigs
STATED CONDITIONS: guinea pig, iv, read-out: ED50 iv after 1 min (cumulative), NK1 (early hypotension)

Challenge: With NK1-receptor (Cavia porcellus, UniProt P30547) as the test system, provide measured ED50 for this molecule: CN(C)C(=O)C1(N2CCCCC2)CCN(CC[C@H](CN(C)C(=O)c2ccccc2)c2ccc(Cl)c(Cl)c2)CC1
Response given: > 0.46 µmol/kg

Challenge: With NK1-receptor (Cavia porcellus, UniProt P30547) as the test system, provide measured ED50 for this molecule: CN(C)C(=O)C1(N2CCCCC2)CCN(CC[C@H](CN(C)C(=O)c2ccc(O)cc2)c2ccc(Cl)c(Cl)c2)CC1
Response given: > 1.46 µmol/kg

Challenge: With NK1-receptor (Cavia porcellus, UniProt P30547) as the test system, provide measured ED50 for this molecule: CN(C)C(=O)C1(N2CCCCC2)CCN(CCC(CN(C)C(=O)c2ccc(Cl)nc2)c2ccc(Cl)c(Cl)c2)CC1 (stereo not shown)
Response given: > 1.46 µmol/kg

Challenge: With NK1-receptor (Cavia porcellus, UniProt P30547) as the test system, provide measured ED50 for this molecule: CN(C)C(=O)C1(N2CCCCC2)CCN(CCC(CN(C)C(=O)c2cccnc2)c2ccc(Cl)c(Cl)c2)CC1 (stereo not shown)
Response given: > 1.46 µmol/kg

* * *

MEASUREMENT TARGET: human NK2-receptor (Homo sapiens)
Sequence (P21452 1-398): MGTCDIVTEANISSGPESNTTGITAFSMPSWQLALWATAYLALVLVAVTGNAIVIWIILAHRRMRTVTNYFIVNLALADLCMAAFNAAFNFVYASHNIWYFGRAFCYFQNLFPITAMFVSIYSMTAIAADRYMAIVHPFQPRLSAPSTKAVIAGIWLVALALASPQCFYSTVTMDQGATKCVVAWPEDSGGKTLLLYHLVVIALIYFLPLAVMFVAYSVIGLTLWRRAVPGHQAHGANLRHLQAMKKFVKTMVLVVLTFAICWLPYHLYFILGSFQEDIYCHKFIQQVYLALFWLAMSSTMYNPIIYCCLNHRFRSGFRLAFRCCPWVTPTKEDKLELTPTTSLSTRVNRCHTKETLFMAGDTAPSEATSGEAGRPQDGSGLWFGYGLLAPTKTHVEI
EXPERIMENTAL DETAILS: Binding potency of the test substances to NK2-receptors in vitro ([3H]-SR 48968 displacement)
Design: expressed in transfected cells; host or cells: CHO cells (membrane preparation)
STATED CONDITIONS: human NK2-receptor in CHO cell membranes, [3H]-SR 48968 (saredutant); average of at least three measurements; read-out: pKi, binding potency to NK2-receptors (converted)
Protocol: 2. Determination of the Binding Potency of the Test Substances to NK2-Receptors in Vitro The affinity of test compounds for NK2-receptors can be determined by measuring the ability of the test compound to displace a radiolabeled ligand from its specific binding site. The radiolabel used in this assay is [^3H]-SR 48968 (saredutant). […] Bound radioactivity was measured with a liquid scintillation counter (total binding). […]
OBSERVATION TYPE: Ki (nM)
Numeric answer only, unit nM assumed.

Worked set:
{"columns": ["COMPOUND", "RESULT VALUE"],
 "data": [
  ["CN(C)C(=O)C1(N2CCCCC2)CCN(CCC(CN(C)C(=O)c2cccc(F)c2)c2ccc(Cl)c(Cl)c2)CC1 (stereo not shown)", 2],
  ["CN(C)C(=O)C1(N2CCCCC2)CCN(CCC(CN(C)C(=O)c2ccc[nH]2)c2ccc(Cl)c(Cl)c2)CC1 (stereo not shown)", 3.16],
  ["CNc1ccccc1C(=O)N(C)CC(CCN1CCC(C(=O)N(C)C)(N2CCCCC2)CC1)c1ccc(Cl)c(Cl)c1 (stereo not shown)", 5.01],
  ["CN(C)C(=O)C1(N2CCCCC2)CCN(CC[C@H](CN(C)C(=O)c2ccccc2)c2ccccc2)CC1", 3.16],
  ["CN(C)C(=O)C1(N2CCCCC2)CCN(CCC(CN(C)C(=O)c2ccoc2)c2ccc(Cl)c(Cl)c2)CC1 (stereo not shown)", 1.58]
]}

Challenge: For the compound CN(C)C(=O)C1(N2CCCCC2)CCN(CCC(CN(C)C(=O)c2ccc3cc[nH]c3c2)c2ccc(Cl)c(Cl)c2)CC1 (stereo not shown) , give its reported Ki.
Response given: 3.16

Challenge: For the compound CN(C)C(=O)C1(N2CCCCC2)CCN(CCC(CN(C)C(=O)c2cc(C(F)(F)F)cc(C(F)(F)F)c2)c2ccc(Cl)c(Cl)c2)CC1 (stereo not shown) , give its reported Ki.
Response given: 25.1
